Molecular target: dipeptidyl aminopeptidase I (Aspergillus oryzae)
Test: relative activity on mono-, di- and tri-peptide para-nitroanilide substrates
Type: biochemical
Conditions: enzyme diluted 100-fold, substrate 2 mg/ml stock, pH 7.5, ambient temperature
Where a SMILES comes first, the peptide text is derived from it. The star is where a group is joined. pNA = O=[N+]([O-])c1ccc(N*)cc1
MEASURED_METRIC: Activity (mOD/min)
Report only the number, with the unit mOD/min understood.

Consider the following illustrative entries.
NCC(=O)N[C@@H](CCCN=C(N)N)C(=O)Nc1ccc([N+](=O)[O-])cc1 [Gly-Arg-pNA] (H-Gly-Arg-pNA)	0
C[C@H](N)C(=O)N1CCC[C@H]1C(=O)Nc1ccc([N+](=O)[O-])cc1 [Ala-Pro-pNA] (H-Ala-Pro-pNA)	244
C[C@H](N)C(=O)N[C@@H](C)C(=O)N1CCC[C@H]1C(=O)Nc1ccc([N+](=O)[O-])cc1 [Ala-Ala-Pro-pNA] (H-Ala-Ala-Pro-pNA)	10.6
C[C@H](N)C(=O)N[C@@H](C)C(=O)Nc1ccc([N+](=O)[O-])cc1 [Ala-Ala-pNA] (H-Ala-Ala-pNA)	30.2

Let us examine a further case.
Request: Entry C[C@H](N)C(=O)Nc1ccc([N+](=O)[O-])cc1 [Ala-pNA] has what Activity (mOD/min)?
Result: 0

###

Molecular target: dipeptidyl aminopeptidase I (Aspergillus oryzae, UniProt Q2UH35)
Sequence (Q2UH35 17-771): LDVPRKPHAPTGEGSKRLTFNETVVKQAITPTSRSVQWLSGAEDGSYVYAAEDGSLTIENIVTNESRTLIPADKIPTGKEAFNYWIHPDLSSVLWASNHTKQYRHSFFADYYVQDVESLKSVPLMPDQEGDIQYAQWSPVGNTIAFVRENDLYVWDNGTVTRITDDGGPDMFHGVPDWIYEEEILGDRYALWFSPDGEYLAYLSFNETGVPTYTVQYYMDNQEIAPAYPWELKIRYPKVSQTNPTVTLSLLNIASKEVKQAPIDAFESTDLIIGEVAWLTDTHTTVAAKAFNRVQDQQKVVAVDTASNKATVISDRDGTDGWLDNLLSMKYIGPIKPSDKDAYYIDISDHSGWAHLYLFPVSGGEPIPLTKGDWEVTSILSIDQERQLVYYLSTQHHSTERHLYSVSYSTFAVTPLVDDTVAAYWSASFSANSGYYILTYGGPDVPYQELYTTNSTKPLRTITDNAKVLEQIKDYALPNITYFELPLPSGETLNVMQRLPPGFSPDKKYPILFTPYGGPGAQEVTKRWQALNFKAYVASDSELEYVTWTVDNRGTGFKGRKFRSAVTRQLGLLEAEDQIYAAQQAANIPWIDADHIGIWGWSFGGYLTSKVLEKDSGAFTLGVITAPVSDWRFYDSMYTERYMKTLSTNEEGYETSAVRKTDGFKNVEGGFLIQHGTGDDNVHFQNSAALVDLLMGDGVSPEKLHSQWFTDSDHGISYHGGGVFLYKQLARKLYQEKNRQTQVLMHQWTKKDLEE
Assay: relative activity on mono-, di- and tri-peptide para-nitroanilide substrates
Type: biochemical
Conditions: enzyme diluted 100-fold, pH 7.5, ambient temperature
Where a SMILES comes first, the peptide text is derived from it. The star is where a group is joined. pNA = O=[N+]([O-])c1ccc(N*)cc1
MEASURED_METRIC: Percent Activity Retative to Ala-Pro-pNA (%)
Provide the reading as a plain figure in %.

Below, 3 compounds whose answers are already recorded.
NCC(=O)N[C@@H](CCCN=C(N)N)C(=O)Nc1ccc([N+](=O)[O-])cc1 [Gly-Arg-pNA] (H-Gly-Arg-pNA)	0
C[C@H](N)C(=O)N[C@@H](C)C(=O)Nc1ccc([N+](=O)[O-])cc1 [Ala-Ala-pNA] (H-Ala-Ala-pNA)	12.4
C[C@H](N)C(=O)N1CCC[C@H]1C(=O)Nc1ccc([N+](=O)[O-])cc1 [Ala-Pro-pNA] (H-Ala-Pro-pNA)	100

Please find the next compound below.
Request: // map C[C@H](N)C(=O)N[C@@H](C)C(=O)N1CCC[C@H]1C(=O)Nc1ccc([N+](=O)[O-])cc1 [Ala-Ala-Pro-pNA] (H-Ala-Ala-Pro-pNA) to recorded Percent Activity Retative to Ala-Pro-pNA (system: dipeptidyl aminopeptidase I (Aspergillus oryzae, UniProt Q2UH35))
Result: 4.3
